Biological target: T1, HCV Core1-169 (hepatitis C virus (HCV-1), UniProt P26664 1-169)
T1 sequence: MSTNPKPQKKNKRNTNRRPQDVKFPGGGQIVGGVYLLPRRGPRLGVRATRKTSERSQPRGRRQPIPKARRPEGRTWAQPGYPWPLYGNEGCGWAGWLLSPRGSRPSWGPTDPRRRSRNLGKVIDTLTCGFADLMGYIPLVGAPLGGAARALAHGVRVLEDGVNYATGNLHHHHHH
Experiment: SPR sandwich, capture mAb C11-14
Quick reference: expected percent binding of the listed items.
Lab book: enter the figure in %, no units written.

BINDER	expected percent binding, %
HCV 208A-159 (antibody, V domains shown) VH: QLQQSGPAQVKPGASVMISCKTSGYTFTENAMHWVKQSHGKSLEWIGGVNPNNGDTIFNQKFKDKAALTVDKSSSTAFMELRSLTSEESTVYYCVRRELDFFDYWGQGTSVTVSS VL: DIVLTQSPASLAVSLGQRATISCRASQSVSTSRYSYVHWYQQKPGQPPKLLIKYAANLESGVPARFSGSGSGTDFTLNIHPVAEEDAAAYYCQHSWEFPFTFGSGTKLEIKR	5.5

// moving on: another record for expected percent binding
expected percent binding lookup needed for HCV 208B-1096 (antibody, V domains shown) VH: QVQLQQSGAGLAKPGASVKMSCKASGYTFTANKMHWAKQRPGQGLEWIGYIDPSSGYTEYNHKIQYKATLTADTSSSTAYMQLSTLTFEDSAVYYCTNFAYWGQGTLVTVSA VL: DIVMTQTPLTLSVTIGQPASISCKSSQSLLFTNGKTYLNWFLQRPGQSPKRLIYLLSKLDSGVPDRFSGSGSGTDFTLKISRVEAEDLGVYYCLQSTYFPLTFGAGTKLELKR , thanks. 16.3
